target: Ba/F3 stable cells (Homo sapiens, UniProt P00533, DUP767-769, cells depend on it); construct: EC50 Ba/F3-EGFR V769-D770insASV; other: Ba/F3-EGFR V769-D770insASV cells, 72 h, CCK-8; assay: EC50 assay: Ba/F3 stable cell proliferation (CCK-8, 72 h); type: cell-based; details: Ba/F3-EGFR V769-D770insASV cells
Sequence (P00533 with tags, fused parts or gaps DUP767-769): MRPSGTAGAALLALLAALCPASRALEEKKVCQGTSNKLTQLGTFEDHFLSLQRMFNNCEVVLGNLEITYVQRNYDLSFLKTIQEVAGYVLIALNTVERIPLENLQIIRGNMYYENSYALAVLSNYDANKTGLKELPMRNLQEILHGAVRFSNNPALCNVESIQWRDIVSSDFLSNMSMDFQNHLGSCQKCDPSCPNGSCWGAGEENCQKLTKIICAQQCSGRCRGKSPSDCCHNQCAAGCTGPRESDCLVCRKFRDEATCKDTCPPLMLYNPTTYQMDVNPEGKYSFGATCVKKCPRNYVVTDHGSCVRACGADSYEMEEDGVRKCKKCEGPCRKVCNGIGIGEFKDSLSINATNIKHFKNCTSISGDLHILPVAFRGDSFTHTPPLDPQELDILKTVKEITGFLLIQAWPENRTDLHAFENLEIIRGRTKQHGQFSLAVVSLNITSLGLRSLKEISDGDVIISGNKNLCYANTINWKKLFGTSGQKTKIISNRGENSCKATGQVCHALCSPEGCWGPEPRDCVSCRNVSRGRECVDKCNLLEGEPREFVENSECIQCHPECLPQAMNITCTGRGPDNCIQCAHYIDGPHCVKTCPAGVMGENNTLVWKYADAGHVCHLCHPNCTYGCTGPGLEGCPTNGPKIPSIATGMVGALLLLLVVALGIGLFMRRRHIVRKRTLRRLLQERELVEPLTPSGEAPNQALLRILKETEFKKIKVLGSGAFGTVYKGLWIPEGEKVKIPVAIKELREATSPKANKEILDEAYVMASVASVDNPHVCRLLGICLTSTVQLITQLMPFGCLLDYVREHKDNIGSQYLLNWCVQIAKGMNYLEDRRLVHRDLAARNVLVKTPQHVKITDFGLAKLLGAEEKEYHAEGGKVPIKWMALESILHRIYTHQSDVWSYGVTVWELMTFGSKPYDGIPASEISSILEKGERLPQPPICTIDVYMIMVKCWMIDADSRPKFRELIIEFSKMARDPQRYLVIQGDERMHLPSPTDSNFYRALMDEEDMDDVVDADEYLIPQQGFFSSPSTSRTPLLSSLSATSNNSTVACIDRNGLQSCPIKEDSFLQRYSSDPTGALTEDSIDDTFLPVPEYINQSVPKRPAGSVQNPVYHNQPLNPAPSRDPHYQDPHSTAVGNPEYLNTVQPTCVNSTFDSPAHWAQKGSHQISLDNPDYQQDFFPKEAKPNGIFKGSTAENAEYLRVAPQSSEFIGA
pEC50: −log10 of the molar value.
property_label: pEC50

- compound: "C=CC(=O)N1CCCC(c2cc3c(Nc4ccc(Cl)c(Cl)c4F)ncnc3cc2OC)C1 (stereo not shown) [Compound 185]"
  system_tested: "Ba/F3 stable cells (Homo sapiens, UniProt P00533, DUP767-769, cells depend on it)"
  property_label: "pEC50"
  result: "≥ 6.70"

Now let's try a different one.
Problem: Output pEC50 of C=CC(=O)NC1CC(Oc2cc3c(NCc4ccc(F)cc4)ncnc3cc2OC)C1 (stereo not shown) [Compound 84]
Result: 6.00 to 6.70
